- TARGET OF ASSAY: human 5-HT1B receptor (Homo sapiens, UniProt P28222)
- Construct: host or cells: HEK293T
- Sequence (P28222 whole entry): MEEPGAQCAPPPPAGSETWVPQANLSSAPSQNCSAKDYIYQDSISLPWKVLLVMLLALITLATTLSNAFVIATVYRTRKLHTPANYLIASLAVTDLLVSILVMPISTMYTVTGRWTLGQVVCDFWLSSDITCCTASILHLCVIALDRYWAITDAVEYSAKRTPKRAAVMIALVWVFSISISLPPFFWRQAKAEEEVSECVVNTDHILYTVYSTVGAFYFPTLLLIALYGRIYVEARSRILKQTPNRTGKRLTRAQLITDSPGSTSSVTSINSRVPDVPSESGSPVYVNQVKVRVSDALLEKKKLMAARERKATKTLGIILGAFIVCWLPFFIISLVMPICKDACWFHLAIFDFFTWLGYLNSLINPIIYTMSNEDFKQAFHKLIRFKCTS
- PROCEDURE DETAILS: Radioligand binding (saturation and competition), WT 5-HT1B
- EXPERIMENTAL SETUP: Affinity (pKi ± SD) 5-HT1B, WT receptor; [^3H]5-CT competition; mean ± SD
pKi: −log10 of the molar value.
pKi of 8 or higher: label 1. Under 8: label 0.

// below: answered compounds
COMPOUND: CN(C)[C@H]1CCc2c(cccc2-c2cccn2C)C1 [(S)-NMP]
CLASS NAME: label 1
--
COMPOUND: CCCN(CCC)[C@@H]1CCc2c(cccc2-c2ccccc2F)C1 [(R)-DFPT]
CLASS NAME: label 0
--
COMPOUND: CN(C)[C@@H]1CCc2c(cccc2-c2cccn2C)C1 [(R)-NMP]
CLASS NAME: label 0
--
COMPOUND: CN(C)[C@H]1CCc2c(cccc2-c2cccc3ccccc23)C1 [(S)-NAP]
CLASS NAME: label 1
--
COMPOUND: CCCN(CCC)[C@H]1CCc2c(cccc2-c2ccccc2Cl)C1 [(S)-DCPT]
CLASS NAME: label 1

query: Decide: is the reported value of pKi for CN(C)[C@H]1CCc2c(cccc2-c2ccccc2Cl)C1 [(S)-CPT] equal to or greater than 8?
result: label 1

query: Given CN(C)[C@@H]1CCc2c(cccc2-c2cccs2)C1 [(R)-TAT] , state whether its pKi is at least 8.
result: label 0

query: Reported pKi reaches at least 8 for CN(C)[C@H]1CCc2c(cccc2-c2c(F)cccc2F)C1 ?
result: label 1
